system: HCT116 WT cells; test: HCT116 WT cell proliferation / viability (CellTiter-Glo, 6 days); format: cell-based; conditions: Homo sapiens, HCT-116, 144 h, HCT116 WT cells, 6 days, CellTiter-Glo; read-out: HCT-116 WT IC50
Class (by IC50) -- low band: < 1000 nM; middle band: ≥ 1000 nM and < 4000 nM; high band: ≥ 4000 nM

[[record]]
compound = "CN(Cc1ccc(C(F)(F)F)cc1)C(=O)c1ccc2nc(N)c3c(c2c1)COC3"
label_class = "high band"

[[record]]
compound = "C[C@@H](c1ncccn1)N(Cc1ccc(C(F)(F)F)nn1)C(=O)c1ccc2nc(N)c3c(c2c1)CCC3 (single isomer, unassigned)"
label_class = "middle band"

[[record]]
compound = "Nc1nc2cnc(C(=O)N(Cc3ccc(C(F)(F)F)nn3)CC3CC3)cc2c2c1COC2"
label_class = "middle band"

[[record]]
compound = "Cc1cc2nc(N)c3cnn(C)c3c2cc1C(=O)N(C)[C@H](C)c1ccc(F)cn1 (single isomer, unassigned)"
label_class = "middle band"

[[record]]
compound = "CCN(Cc1ccc(C2CC2)cn1)C(=O)c1ccc2nc(N)c3cnn(C)c3c2c1"
label_class = "middle band"

[[record]]
compound = "Cn1ncc2c(N)nc3cc(C(F)(F)F)c(C(=O)N(Cc4ccc(C(F)(F)F)cn4)C4CC4)cc3c21"
label_class = "high band"

[[record]]
compound = "CCN(C(=O)c1ccc2nc(N)c3c(c2c1)CO[C@@H]3C)[C@H](C)c1ccc(C(F)(F)F)nn1"
label_class = "middle band"

[[record]]
compound = "CC[C@H](c1ccc(C(F)(F)F)cn1)N(CC)C(=O)c1cc2c3c(c(N)nc2cn1)COC3"
label_class = "high band"

[[record]]
compound = "CCN(Cc1ccc(C(F)(F)F)nn1)C(=O)c1cc2c3c(c(N)nc2cc1F)[C@@H](C)OC3"
label_class = "middle band"

[[record]]
compound = "C[C@H](c1ncccn1)N(Cc1ccc(C(F)F)cn1)C(=O)c1ccc2nc(N)c3c(c2c1)COC3"
label_class = "low band"

[[record]]
compound = "C[C@H]1OCc2c1c(N)nc1ccc(C(=O)N(C)Cc3ccc(Br)cn3)cc21"
label_class = "high band"

[[record]]
compound = "CC(C)CN(Cc1ccc(C(F)(F)F)cn1)C(=O)c1ccc2nc(N)c3c(c2c1)CO[C@H]3CO (single isomer, unassigned)"
label_class = "high band"

[[record]]
compound = "Cn1ncc2c(N)nc3cc(F)c(C(=O)N(Cc4ccc(C(F)(F)F)cn4)C4CCC4)cc3c21"
label_class = "low band"

[[record]]
compound = "CC(C)N(C(=O)c1ccc2nc(N)c3c(c2c1)CO[C@@H]3C)[C@@H](C)c1ccc(C(F)(F)F)cn1 (single isomer, unassigned)"
label_class = "high band"

[[record]]
compound = "C[C@@H]1OCc2c1c(N)nc1cnc(C(=O)N(Cc3ccc(C4CC4)cn3)C3CC3)cc21"
label_class = "high band"

[[record]]
compound = "Nc1nc2cc(F)c(C(=O)N(Cc3ccc(C(F)(F)F)cn3)C3CC3)cc2c2c1cnn2CC(F)(F)F"
label_class = "low band"

[[record]]
compound = "CC(C)N(Cc1ccc(C(F)(F)F)nn1)C(=O)c1cc2c3c(c(N)nc2cn1)COC3"
label_class = "high band"

[[record]]
compound = "C[C@@H](c1ncccn1)N(Cc1ccc(C#N)cn1)C(=O)c1ccc2nc(N)c3c(c2c1)COC3"
label_class = "high band"

[[record]]
compound = "CCOc1ccc(CN(CC2CC2)C(=O)c2cc3c4c(c(N)nc3cc2F)COC4)nn1"
label_class = "low band"

[[record]]
compound = "Nc1nc2cc(Cl)c(C(=O)N(Cc3ccc(C4CC4)cn3)C3CC3)cc2c2c1COC2"
label_class = "middle band"

[[record]]
compound = "Cc1nn(C)c2c1c(N)nc1cc(F)c(C(=O)N(Cc3ccc(C(F)(F)F)cn3)C(C)C)cc12"
label_class = "low band"

[[record]]
compound = "CC(C)CN(Cc1ccc(C(F)(F)F)cn1)C(=O)c1cnc2nc(N)c3c(c2c1)CCC3"
label_class = "middle band"

[[record]]
compound = "CO[C@@H]1COCC[C@H]1N(Cc1ccc(C(F)(F)F)cn1)C(=O)c1ccc2nc(N)c3c(c2c1)COC3 (racemic) [Example 459]"
label_class = "low band"

[[record]]
compound = "COCC(COC)N(Cc1ccc(C(F)(F)F)cn1)C(=O)c1ccc2nc(N)c3c(c2c1)COC3"
label_class = "low band"

[[record]]
compound = "Cc1cc2nc(N)c3c(c2cc1C(=O)N(C)Cc1ccc(C(F)(F)F)cn1)COC3"
label_class = "middle band"

[[record]]
compound = "CC(C)N(Cc1ccc(C2CC2)nc1)C(=O)c1ccc2nc(N)c3c(c2c1)CO[C@@H]3C"
label_class = "high band"

